- PROTOCOL_DESCRIPTION: Plasma pharmacokinetics in rats after a 30-min intravenous infusion of Kang-Ai injection
- Format: in vivo, Sprague–Dawley rats
- MEASUREMENT_CONTEXT: male, Sprague-Dawley, rat, in vivo, iv
MEASURED_QUANTITY: Vd (L/kg)
Expressed in L/kg, but write only the number.

Any idea what Vd was measured for O=C1CCC[C@@H]2[C@H]3CCC[N+]4([O-])CCC[C@@H](CN12)[C@@H]34 (stereo partly shown) ?
0.22

---

- TESTED_TARGET: CYP2B6 (Homo sapiens)
- Sequence (P20813 1-491): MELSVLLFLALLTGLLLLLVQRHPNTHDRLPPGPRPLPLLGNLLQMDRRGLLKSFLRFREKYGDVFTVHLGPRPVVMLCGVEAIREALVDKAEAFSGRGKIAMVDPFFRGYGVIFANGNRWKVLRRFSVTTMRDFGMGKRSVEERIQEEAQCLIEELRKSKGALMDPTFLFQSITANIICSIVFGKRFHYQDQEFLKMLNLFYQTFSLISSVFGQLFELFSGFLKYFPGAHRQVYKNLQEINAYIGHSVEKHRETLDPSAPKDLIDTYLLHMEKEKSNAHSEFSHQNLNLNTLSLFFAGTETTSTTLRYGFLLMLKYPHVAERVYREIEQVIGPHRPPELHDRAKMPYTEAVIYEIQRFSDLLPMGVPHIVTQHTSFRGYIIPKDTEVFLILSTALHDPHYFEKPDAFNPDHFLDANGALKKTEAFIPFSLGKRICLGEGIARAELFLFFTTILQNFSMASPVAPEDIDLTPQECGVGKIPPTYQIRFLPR
- PROTOCOL_DESCRIPTION: Inhibition of recombinant CYP2B6 (probe bupropion)
- Format: in vitro ADME
- MEASUREMENT_CONTEXT: recombinant isozyme; mean ± SD of triplicate; unit not given (IC50 classes in μM); read-out: IC50 towards CYP2B6
MEASURED_QUANTITY: IC50

Example compounds with recorded IC50:
[[record]]
compound = "CC(C)(O)[C@@H]1CC[C@](C)([C@H]2[C@@H](O)C[C@@]3(C)[C@@H]4C[C@H](O[C@@H]5O[C@H](CO)[C@@H](O)[C@H](O)[C@H]5O)[C@H]5C(C)(C)[C@@H](O[C@@H]6OC[C@@H](O)[C@H](O)[C@H]6O)CC[C@@]56C[C@@]46CC[C@]23C)O1 [Compound B2, Astragaloside IV]"
reported_measurement = "> 100 µM"

[[record]]
compound = "CC(C)=CCC[C@](C)(O[C@@H]1O[C@H](CO[C@@H]2O[C@@H](CO)[C@H](O)[C@H]2O)[C@@H](O)[C@H](O)[C@H]1O)[C@H]1CC[C@]2(C)[C@@H]1[C@H](O)C[C@@H]1[C@@]3(C)CC[C@H](O[C@@H]4O[C@H](CO)[C@@H](O)[C@H](O)[C@H]4O[C@@H]4O[C@H](CO)[C@@H](O)[C@H](O)[C@H]4O)C(C)(C)[C@@H]3CC[C@]12C [Compound D3, Ginsenoside Rc]"
reported_measurement = "> 100 µM"

[[record]]
compound = "CC(C)=CCC[C@](C)(O[C@@H]1O[C@H](CO)[C@@H](O)[C@H](O)[C@H]1O)[C@H]1CC[C@]2(C)[C@@H]1[C@H](O)C[C@@H]1[C@@]3(C)CC[C@H](O[C@@H]4O[C@H](CO)[C@@H](O)[C@H](O)[C@H]4O[C@@H]4O[C@H](CO)[C@@H](O)[C@H](O)[C@H]4O)C(C)(C)[C@@H]3CC[C@]12C [Compound D2, Ginsenoside Rd]"
reported_measurement = "20.2 µM"

[[record]]
compound = "CC(C)=CCC[C@](C)(O[C@@H]1O[C@H](CO)[C@@H](O)[C@H](O)[C@H]1O)[C@H]1CC[C@]2(C)[C@@H]1[C@H](O)C[C@@H]1[C@@]3(C)CC[C@H](O)C(C)(C)[C@@H]3[C@@H](O[C@@H]3O[C@H](CO)[C@@H](O)[C@H](O)[C@H]3O)C[C@]12C [Compound C6, Ginsenoside Rg1]"
reported_measurement = "> 100 µM"

[[record]]
compound = "CC(C)=CCC[C@](C)(O[C@@H]1O[C@H](CO[C@@H]2O[C@H](CO)[C@@H](O)[C@H](O)[C@H]2O)[C@@H](O)[C@H](O)[C@H]1O)[C@H]1CC[C@]2(C)[C@@H]1[C@H](O)C[C@@H]1[C@@]3(C)CC[C@H](O[C@@H]4O[C@H](CO)[C@@H](O)[C@H](O)[C@H]4O[C@@H]4O[C@H](CO)[C@@H](O)[C@H](O)[C@H]4O)C(C)(C)[C@@H]3CC[C@]12C [Compound D5, Ginsenoside Rb1]"
reported_measurement = "> 100 µM"


Any idea what IC50 was measured for CC(C)=CCC[C@](C)(O[C@@H]1O[C@H](CO)[C@@H](O)[C@H](O)[C@H]1O)[C@H]1CC[C@]2(C)[C@@H]1[C@H](O)C[C@@H]1[C@@]3(C)CC[C@H](O)C(C)(C)[C@@H]3[C@@H](O[C@@H]3O[C@H](CO)[C@@H](O)[C@H](O)[C@H]3O[C@@H]3O[C@@H](C)[C@H](O)[C@@H](O)[C@H]3O)C[C@]12C [Compound C9, Ginsenoside Re] ?
> 100 µM

Consider next the compound CC(C)=CCC[C@](C)(O)[C@H]1CC[C@]2(C)[C@@H]1[C@H](O)C[C@@H]1[C@@]3(C)CC[C@H](O)C(C)(C)[C@@H]3[C@@H](O[C@@H]3O[C@H](CO)[C@@H](O)[C@H](O)[C@H]3O[C@@H]3O[C@H](CO)[C@@H](O)[C@H](O)[C@H]3O)C[C@]12C [Compound C7, Ginsenoside Rf] in the same way.
> 100 µM

---

- PROTOCOL_DESCRIPTION: Plasma pharmacokinetics in rats after a 30-min intravenous infusion of Kang-Ai injection
- Type: in vivo, Sprague–Dawley rats
- MEASUREMENT_CONTEXT: male, Sprague-Dawley, plasma; rat; 30-min iv infusion of Kang-Ai injection 6 mL/kg; Table 1 unit; read-out: VSS
Below, each entry is listed with its recorded Vd.
Expressed in L, but write only the number.

[[record]]
compound = "CC(C)=CCC[C@](C)(O[C@@H]1O[C@H](CO[C@@H]2O[C@@H](CO)[C@H](O)[C@H]2O)[C@@H](O)[C@H](O)[C@H]1O)[C@H]1CC[C@]2(C)[C@@H]1[C@H](O)C[C@@H]1[C@@]3(C)CC[C@H](O[C@@H]4O[C@H](CO)[C@@H](O)[C@H](O)[C@H]4O[C@@H]4O[C@H](CO)[C@@H](O)[C@H](O)[C@H]4O)C(C)(C)[C@@H]3CC[C@]12C [Compound D3, Ginsenoside Rc]"
unit_annotation = "L"
reported_measurement = 0.0378

[[record]]
compound = "CC(C)=CCC[C@](C)(O[C@@H]1O[C@H](CO)[C@@H](O)[C@H](O)[C@H]1O)[C@H]1CC[C@]2(C)[C@@H]1[C@H](O)C[C@@H]1[C@@]3(C)CC[C@H](O)C(C)(C)[C@@H]3[C@@H](O[C@@H]3O[C@H](CO)[C@@H](O)[C@H](O)[C@H]3O)C[C@]12C [Compound C6, Ginsenoside Rg1]"
unit_annotation = "L"
reported_measurement = 0.144


# ---- query compound ----
Any idea what Vd was measured for CC(C)=CCC[C@](C)(O[C@@H]1O[C@H](CO[C@@H]2O[C@H](CO)[C@@H](O)[C@H](O)[C@H]2O)[C@@H](O)[C@H](O)[C@H]1O)[C@H]1CC[C@]2(C)[C@@H]1[C@H](O)C[C@@H]1[C@@]3(C)CC[C@H](O[C@@H]4O[C@H](CO)[C@@H](O)[C@H](O)[C@H]4O[C@@H]4O[C@H](CO)[C@@H](O)[C@H](O)[C@H]4O)C(C)(C)[C@@H]3CC[C@]12C [Compound D5, Ginsenoside Rb1] ?
0.047

---

- PROTOCOL_DESCRIPTION: Stability tests of analytes in rat plasma QC samples
- Format: in vitro ADME
- MEASUREMENT_CONTEXT: rat plasma, nominal conc. 20 nM
Everything with Three freeze-thaw cycles (-80 °C ↔ 23 °C), RE lower than 10% is Not fulfilled; everything else, including exactly 10%, is Fulfilled.

[[record]]
compound = "CC(C)=CCC[C@](C)(O[C@@H]1O[C@H](CO[C@@H]2O[C@@H](CO)[C@H](O)[C@H]2O)[C@@H](O)[C@H](O)[C@H]1O)[C@H]1CC[C@]2(C)[C@@H]1[C@H](O)C[C@@H]1[C@@]3(C)CC[C@H](O[C@@H]4O[C@H](CO)[C@@H](O)[C@H](O)[C@H]4O[C@@H]4O[C@H](CO)[C@@H](O)[C@H](O)[C@H]4O)C(C)(C)[C@@H]3CC[C@]12C [Compound D3, Ginsenoside Rc]"
group_label = "Fulfilled"


Does the reported Three freeze-thaw cycles (-80 °C ↔ 23 °C), RE for CC(C)=CCC[C@](C)(O[C@@H]1O[C@H](CO[C@@H]2O[C@H](CO)[C@@H](O)[C@H](O)[C@H]2O)[C@@H](O)[C@H](O)[C@H]1O)[C@H]1CC[C@]2(C)[C@@H]1[C@H](O)C[C@@H]1[C@@]3(C)CC[C@H](O[C@@H]4O[C@H](CO)[C@@H](O)[C@H](O)[C@H]4O[C@@H]4O[C@H](CO)[C@@H](O)[C@H](O)[C@H]4O)C(C)(C)[C@@H]3CC[C@]12C [Compound D5, Ginsenoside Rb1] fall at or above the 10% mark?
Not fulfilled

Consider next the compound CC(C)(O)[C@@H]1CC[C@](C)([C@H]2[C@@H](O)C[C@@]3(C)[C@@H]4C[C@H](O)[C@H]5C(C)(C)[C@@H](O[C@@H]6OC[C@@H](O)[C@H](O)[C@H]6O[C@@H]6O[C@H](CO)[C@@H](O)[C@H](O)[C@H]6O)CC[C@@]56C[C@@]46CC[C@]23C)O1 [Compound B3, Astragaloside III] in the same way.
Not fulfilled

Consider next the compound CC(C)=CCC[C@](C)(O[C@@H]1O[C@H](CO)[C@@H](O)[C@H](O)[C@H]1O)[C@H]1CC[C@]2(C)[C@@H]1[C@H](O)C[C@@H]1[C@@]3(C)CC[C@H](O)C(C)(C)[C@@H]3[C@@H](O[C@@H]3O[C@H](CO)[C@@H](O)[C@H](O)[C@H]3O[C@@H]3OC[C@@H](O)[C@H](O)[C@H]3O)C[C@]12C [Compound C8, Notoginsenoside R1] in the same way.
Fulfilled

Consider next the compound CC(C)=CCC[C@](C)(O)[C@H]1CC[C@]2(C)[C@@H]1[C@H](O)C[C@@H]1[C@@]3(C)CC[C@H](O)C(C)(C)[C@@H]3[C@@H](O[C@@H]3O[C@H](CO)[C@@H](O)[C@H](O)[C@H]3O[C@@H]3O[C@H](CO)[C@@H](O)[C@H](O)[C@H]3O)C[C@]12C [Compound C7, Ginsenoside Rf] in the same way.
Fulfilled
